Tested on: NEO-101
Experiment Description: Biotinylated peptide binding ELISA
Measurement Setup: biotinylated peptide on NEO-101 coated plate
Readout Label: NEO-101 binding

| Sequence Content | Measured Value |
| --- | --- |
| YSHSFPEDYFRYTNQKGGGS (NPC-1 epitope peptidomimetic) [Peptide 4-1-3-C9] | Yes |
| YSHSSLPDDWFRYINYGGGS (NPC-1 epitope peptidomimetic) [Peptide 4-1-4-C12] | Yes |
| YSHSVHAIEDNWSPRGGGGS (NPC-1 epitope peptidomimetic) [Peptide 4-1-3-C11, reference compound] | No |
| YSHSWHTLPESGEVTSGGGS (NPC-1 epitope peptidomimetic) [Peptide 4-1-3-C8] | Yes |
